// provenance: PubChem BioAssay (NCI)

system: IGROV1 ovarian; test: NCI tumour cell line growth inhibition, 48 h
Please go through the items and note down their TGI.
One number for each entry, in µM.

# count of solved cases: 8
# molecule, recorded_metric, unit_label, numeric_readout
data = [
    ("O=C(NCCNCCO)c1ccc(Nc2nc3ccccc3c3occc23)cc1", "TGI", "µM", 25.1),
    ("Fc1ccc(Nc2nc(Nc3ccc(-c4nc5ccccc5[nH]4)cc3)c3cn[nH]c3n2)cc1", "TGI", "µM", 3.84),
    ("CCCCCCCCCCCCOC1C(COCCN2CCCCC2)OC2OC(C)(C)OC21 (stereo not given)", "TGI", "µM", 3.26),
    ("COc1ccc2c(c1)-c1c(c3cc(OC)ccc3n(CCN(C)C)c1=O)C2=O", "TGI", "µM", 2.31),
    ("Cc1cc(N(CCNc2ccnc3cc(Cl)ccc23)Cc2ccc3c(c2)OCO3)nc(N2CCCC2)n1", "TGI", "µM", 3.64),
    ("N#Cc1c(N)nc(N2CCOCC2)c(C#N)c1-c1c(Cl)cccc1Cl", "TGI", "µM", 5.08),
    ("Cn1c(=O)c2[nH]c(SC/C(=N/O)c3ccc(Br)cc3)nc2n(C)c1=O", "TGI", "µM", 5.55),
    ("O=C1c2cccnc2-c2nccc3c2c1nc1ccccc13", "TGI", "µM", 1.33),
]

Consider the following items and state reported TGI for each.
1. COc1cnccc1Nc1nc(-c2nn(Cc3c(F)cc(OCCO)cc3F)c3ccccc23)ncc1OC
2. Cc1cc(N2CCOCC2)nc(NCc2cc(Nc3ccnc4cc(Cl)ccc34)ccc2F)n1
3. CN1CCN(c2ccc(NC3=CC(=O)c4ncncc4C3=O)cc2)CC1

Response line:
16.4
3.92
0.542
